Source listed as patent US10363239B2.

Please provide measured MOR agonist activity, percent [35S]GTPγS binding at the stated compound concentration for the entries that follow.
tested on: mu opiate receptor (MOR); experiment: MOR agonist activity using [35S]GTPγS binding assay in striatal membranes; assay type: biochemical; conditions: Series C-2; 1 μM compound + 1 μM β-FNA
One number for each entry, in %.

Batch: MOR agonist activity, percent [35S]GTPγS binding at the stated compound concentration for all items listed.
1. CCN1CCC2(CC1)OCCN2S(=O)(=O)c1ccc(OC)cc1 [Compound C0089M]
2. Cc1ccc(S(=O)(=O)N2CCOC23CCN(CC2CC2)CC3)cc1 [Compound C0134M]
3. CC(=O)c1ccc(S(=O)(=O)N2CC(CN(C)C)OC23CCN(C)CC3)cc1 (stereo not drawn) [Compound C0108M]
4. COc1ccc(S(=O)(=O)N2CCC3(CC2)NCCC(=O)N3)cc1 [Compound C0142M]
5. COc1ccc(S(=O)(=O)N2CCOC23CCNCC3)cc1

[81.9, 46.6, 76.9, 98.7, 72.2]

Batch: MOR agonist activity, percent [35S]GTPγS binding at the stated compound concentration for all items listed.
1. CC(=O)c1ccc(S(=O)(=O)N2CCOC23CCNCC3)cc1
2. CCN1CCC2(CC1)OCCN2S(=O)(=O)c1ccc(C(C)=O)cc1 [Compound C0094M]
3. O=[N+]([O-])c1ccc(S(=O)(=O)N2CCC3(CC2)NCCCO3)cc1
4. COc1ccc(S(=O)(=O)N2CCOC23CCN(C(=O)OC(C)(C)C)CC3)cc1

156.8
115.3
105.3
83.3

---

Please provide measured inhibition at 0.1 µM for the entries that follow.
target: FLNA pentapeptide of SEQ ID NO: 1 (Bn-VAKGL) (Homo sapiens, UniProt P21333); experiment: FITC-NLX-based FLNA screening assay (inhibition of FITC-naloxone binding to Bn-VAKGL on streptavidin plates); settings: FLNA-binding compound 0.1 μM; 10 nM FITC-NLX; read-out: Percent Binding Inhibition

Batch: inhibition at 0.1 µM for all items listed.
1. CC(=O)c1ccc(S(=O)(=O)N2CCOC23CCN(CC(=O)O)CC3)cc1 [Compound C0100M]
2. CC1CCC(C(C)C)C(OCC(CN2CC(C)OC(C)C2)NCc2ccccc2)C1 (stereo not shown)
3. CC1CCC(C(C)C)C(OCC(O)CN2CCCCCC2)C1 (stereo not shown)

["58.2%", "51.8%", "40.2%"]

Sample "COc1ccc(S(=O)(=O)N2CCC3(CC2)OCCN3S(=O)(=O)c2ccc(OC)cc2)cc1" ; inhibition at 0.1 µM observed: 47.9%

---

tested on: mu opiate receptor (MOR); assay: MOR agonist activity using [35S]GTPγS binding assay in striatal membranes; assay type: biochemical; details: Series C-1; 1 μM compound + 1 μM β-FNA
Please provide measured Concentration of FLNA-Binding Compound as Agonist 1 μM + BFNA for the entries that follow.
Numbers only, in %.

Please review the entries below; each comes with its answer.
COC(=O)c1ccc(S(=O)(=O)N2CCC3(CC2)OCCN3S(=O)(=O)c2ccc(C(=O)OC)cc2)cc1 | 78.4
NS(=O)(=O)c1ccc(S(=O)(=O)N2CCC3(CC2)OCCN3S(=O)(=O)c2ccc(S(N)(=O)=O)cc2)cc1 | 80.1
COc1ccccc1S(=O)(=O)N1CCC2(CC1)OCCN2S(=O)(=O)c1ccccc1OC | 107.7
COc1cc(S(=O)(=O)N2CCC3(CC2)OCCN3S(=O)(=O)c2cc(OC)c(OC)c(OC)c2)cc(OC)c1OC | 59.8
COc1ccc(S(=O)(=O)N2CCCC3(C2)OCCN3S(=O)(=O)c2ccc(OC)cc2)cc1 (stereo not shown) [Compound C0145M] | 87.0
O=C(OCc1ccccc1)c1ccc(S(=O)(=O)N2CCC3(CC2)OCCN3S(=O)(=O)c2ccc(C(=O)OCc3ccccc3)cc2)cc1 | 110.6

// below: Concentration of FLNA-Binding Compound as Agonist 1 μM + BFNA requested for another compound
Sample CC(=O)c1ccc(S(=O)(=O)N2CCC3(CC2)OC(CN(C)C)CN3S(=O)(=O)c2ccc(C(C)=O)cc2)cc1 (stereo not shown) ; Concentration of FLNA-Binding Compound as Agonist 1 μM + BFNA observed: 47.7
